# Tested on: OVCAR-3
# PROTOCOL DETAILS: NCI tumour cell line growth inhibition, 48 h
Activity calls are given as the source filed them. Rule as the data show it: active = GI50 up to about 1.1 µM and inactive = higher.
The categories you may choose from are true (1) (active), false (0) (inactive)

| COMPOUND | CLASS NAME |
| --- | --- |
| Cc1[nH]c(=O)[nH]c(=O)c1N(CCF)CCCl [FLUORODOPAN] | false (0) |
| N=C(N)N/N=C/c1c(-c2ccc(Cl)c([N+](=O)[O-])c2)nc2sccn12 | false (0) |
| OC(C/C(=N\N1CCCCC1)c1cccs1)(C(F)(F)F)C(F)(F)F | false (0) |
| Cc1sc2[nH]c(=O)oc(=O)c2c1C | false (0) |
| Cn1c(=O)n2n(c1=O)C(S(=O)(=O)c1ccccc1)C2 (stereo unspecified) | false (0) |

Req: Call for entry `O=C(Oc1ccccc1)c1cc2cc(CCl)ccc2oc1=O` :
Resp: false (0)

Req: In this assay, the call recorded for `O=c1[nH]/c(=C/c2ccc(OCc3ccccc3)cn2)c(=O)[nH]/c1=C/c1ccc(Cl)cc1` was what?
Resp: true (1)

Req: What call does the record list for `NC(=O)C/C=C/CC(N)=O` ?
Resp: false (0)

Req: Would you mind telling me which call this test gave `CC(=O)O[C@@H]1O[Si](C(C)(C)C)(C(C)(C)C)[C@H](C)[C@H]1C` ?
Resp: false (0)

Req: Write down the call the test reported for this compound. Item: `Cc1c(-c2ccccc2)c(C#N)c2nnn(C3CCCCC3)c(=O)n12`
Resp: false (0)

Req: Can you look up the reported call for O=C(O)C12C3C4C1C1C2C3C41I (stereo unspecified) for me?
Resp: false (0)

====

This section presents compounds with their documented GI50 values.
# Tested on: T47D
# PROTOCOL DETAILS: NCI tumour cell line growth inhibition, 48 h
Active and inactive are the calls of the source. No stated cut-off is given here; in the data, active = GI50 up to about 1.1 µM and inactive = higher.

Worked examples follow.
| COMPOUND | GI50 |
| --- | --- |
| COc1ccc([C@H]2[C@H]3COC(=O)[C@H]3C(C#N)=C3Sc4ccccc4N32)cc1 | 8.89 µM (inactive) |
| CC(C)(C)n1c(=O)n2n(c1=O)C1c3cccc4cccc(c34)C2C2c3cccc4cccc(c34)C1n1c(=O)n(C(C)(C)C)c(=O)n12 | 44.9 µM (inactive) |
| COc1cc2c(cc1OC)C(C)N(C)c1c-2c(OC(C)=O)cc2cc(OC)c(OC)cc12 (stereo not given) | 8.24 µM (inactive) |
| N#C/C(=C\NC(=S)c1ccncc1)c1nc2ccccc2s1 | 37.9 µM (inactive) |

Then there is this compound:
Req: Any idea what its GI50 is? The compound is `O=C1C(Cl)=C(NCCF)C(=O)c2ncccc21`
Resp: 2.2 µM (inactive)

====

# Tested on: SK-MEL-28
# PROTOCOL DETAILS: NCI tumour cell line growth inhibition, 48 h
Activity calls are given as the source filed them. Cut-off read from the data, not from the text of the source: active = GI50 up to about 1.1 µM and inactive = higher.
MEASURED ATTRIBUTE: GI50

Study these solved cases before continuing.
| COMPOUND | GI50 |
| --- | --- |
| CCCC(=O)Nc1ncnc2c1ncn2C1OC2COP(=O)(O)OC2C1OC(=O)CCC (stereo not given) | > 100 µM (inactive) |
| CC(=O)O[C@@H]1O[Si](C(C)(C)C)(C(C)(C)C)[C@H](C)[C@H]1C | > 100 µM (inactive) |
| O=C(CNc1ccc(Cl)cc1)Nn1c(-c2ccccc2)nc2ccccc2c1=O | 6.64 µM (inactive) |
| C#CCn1c(=O)c2cccnc2n(CC#C)c1=O | > 100 µM (inactive) |
| C=CCNC(=O)NC1=CSC2=NC(=O)C3(NN12)c1ccccc1-c1ccccc13 | > 10 µM (inactive) |

Req: Quick check: GI50 of NC(=O)c1nnn(Cc2cc(Cl)c(C(=O)c3ccc(Cl)cc3)c(Cl)c2)c1N [CARBOXYAMIDOTRIAZOLE] ?
Resp: 27.9 µM (inactive)

Req: Quick check: GI50 of Cc1[nH]c(=O)[nH]c(=O)c1N(CCF)CCCl [FLUORODOPAN] ?
Resp: 420 µM (inactive)

Req: Fill in the blank: the reported GI50 of `CCn1c(=O)c2nc(SC)sc2n(-c2ccc(C)cc2)c1=O` is ____.
Resp: > 100 µM (inactive)

Req: Request the reported GI50 associated with `CC(C)(C)CN1[C@@H]2CCCC[C@H]2N(CC(C)(C)C)P1(=O)Cc1ccccc1`
Resp: 16.9 µM (inactive)

Req: Tell me the measured GI50 of `CC(C)NC(=O)OCc1c(COC(=O)NC(C)C)c(-c2ccc[n+](COC(=O)C3CC3)c2)n2c1CCC2` , please.
Resp: > 100 µM (inactive)

====

Quick list: GI50 per entry.
# System: A549
# PROTOCOL DETAILS: NCI tumour cell line growth inhibition, 48 h
Active and inactive are the calls of the source. No stated cut-off is given here; in the data, active = GI50 up to about 1.1 µM and inactive = higher.

| MOLECULE | READING |
| --- | --- |
| N#CC(NNC(=O)c1ccccc1O)c1cccc(O)c1 (stereo not given) | 2.21 µM (inactive) |
| CCNC1(c2cccc(C)c2)OC(C)(C)c2cccc3cccc1c23 (stereo not given) | 15.6 µM (inactive) |
| CC(C)(C)CN1[C@@H]2CCCC[C@H]2N(CC(C)(C)C)P1(=O)Cc1ccccc1 | 11.6 µM (inactive) |
| Cc1ccc(S(=O)(=O)NC(=O)Nc2nc[nH]n2)cc1 | > 100 µM (inactive) |

Now for the molecule whose GI50 we want.
Req: Entry `O=C(O)c1ccc(Nc2nc3ccc(C(F)(F)F)cc3nc2-c2ccccc2)cc1` , system A549: what GI50 was measured?
Resp: 27 µM (inactive)

====

# Tested on: MDA-MB-231
# PROTOCOL DETAILS: NCI tumour cell line growth inhibition, 48 h
Calls of active or inactive are those of the source. Cut-off read from the data, not from the text of the source: active = GI50 up to about 1.1 µM and inactive = higher.
Hi there, use one of these labels in your reply, thanks! active, inactive

| MOLECULE | MEASURED ON | CLASS NAME |
| --- | --- | --- |
| O=C(O)CCSCc1ccccc1 | MDA-MB-231 | inactive |

Req: Assay outcome for `COc1cc(/C=N/c2ccccn2)cc(OC)c1OC` : what was it?
Resp: inactive

Req: Dear colleague, could you share the recorded outcome for `Nc1nc(Cl)cc(NCC2(O)CCC2)n1` when you have a moment?
Resp: inactive

Req: How did this test come out for CCC(C)N1CN(c2ccccc2)C2(CCN(CCCSc3ccc(F)cc3)CC2)C1=O (stereo unspecified) ?
Resp: active

Req: What classification did `COC(=O)c1c(O)ccc2c1c1c(n2Cc2ccc(Cl)cc2Cl)C(=O)c2ccccc2C1=O` end up with in this test?
Resp: inactive

Req: Recorded test outcome, item `CC1=NN(c2nc(N)nc(CF)n2)C(C)(C)C1`
Resp: inactive

Req: What classification did C[C@]12CC(c3ccccc3O1)C(C#N)C(=O)N2 (stereo partly specified) end up with in this test?
Resp: inactive

Req: Hello, I am checking results. What call was entered for `Cc1c2c(n(Cc3ccccn3)c1C)NN=C(C#N)S2(=O)=O` ?
Resp: inactive

Req: # outcome recorded in this test, key = `COc1cc2c(cc1OCCCOc1cc(-c3ccc(F)cc3)nc(C)n1)N=C[C@@H]1CCCN1C2=O`
Resp: inactive

Req: Can you look up the reported call for OC1CC2CCC(C1)N2CCCN1c2ccccc2Sc2ccc(Cl)cc21 (stereo unspecified) for me?
Resp: inactive

Req: Look up the recorded call for `COc1ccc(CN2C(=O)CCC/C=C\[C@H]2CI)cc1` in this test.
Resp: inactive

====

# Test system: SF-268
# PROTOCOL DETAILS: NCI tumour cell line growth inhibition, 48 h
Activity calls are given as the source filed them. Rule as the data show it: active = GI50 up to about 1.1 µM and inactive = higher.
The reply should be one of these categories: y (active), n (inactive)

| COMPOUND | CLASS NAME |
| --- | --- |
| CC(=O)OC[C@@H](COC(=O)/C=C/c1ccc(O)cc1)OC1OC(CO)C(O)C(O)C1O (stereo not given in full) | n |
| O=C1C(Cl)=C(Cl)C(=O)N1c1ccc(Cl)c(Cl)c1Cl | n |
| COc1cccc(/C=C2\CCCCCC2=O)c1 | n |
| O=C(N(O)c1ccccc1Cl)C(O)(c1ccccc1)c1ccccc1 | n |
| Nc1ccn([C@@H]2C=C(CO)[C@@H](O)[C@H]2O)c(=O)n1 | y |
| O=C1CS/C(=N/N=C/c2cn(Cc3ccc(Cl)cc3Cl)c3ccccc23)N1 | n |
| CC(=O)O[C@H]1C(=O)[C@@]2(C)[C@H]([C@H](OC(=O)c3ccccc3)[C@]3(O)C[C@H](OC(=O)[C@H](O)[C@@H](NC(=O)C(C)(O)C(C)O)c4ccccc4)C(C)=C1C3(C)C)[C@]1(OC(C)=O)CO[C@@H]1C[C@@H]2O (stereo not given in full) | y |
| Cc1ccc(S(=O)(=O)C(C#N)c2nc3ccccc3nc2-n2cccn2)cc1 (stereo not given) | n |

Req: For this compound, state the assay outcome: `O=C1c2ccccc2-c2c1c(-c1ccc(F)cc1)nc1ccc3ccccc3c21`
Resp: n

Req: Name the outcome recorded for `c1ccc2/c3[nH]/c(c2c1)=N\c1ccc(cc1)-c1nc2cc(ccc2o1)/N=c1/[nH]/c(c2ccccc12)=N/c1ccc2nc(oc2c1)-c1ccc(cc1)\N=3` in the assay.
Resp: n
